The measurements presented in this section are drawn from ChEMBL document CHEMBL4330129.

Provide the recorded pIC50 for the entries that follow.
# SYSTEM NAME: Keap1/Nrf2 (Homo sapiens, UniProt Q14145+Q16236)
# Sequence (Q16236 whole entry): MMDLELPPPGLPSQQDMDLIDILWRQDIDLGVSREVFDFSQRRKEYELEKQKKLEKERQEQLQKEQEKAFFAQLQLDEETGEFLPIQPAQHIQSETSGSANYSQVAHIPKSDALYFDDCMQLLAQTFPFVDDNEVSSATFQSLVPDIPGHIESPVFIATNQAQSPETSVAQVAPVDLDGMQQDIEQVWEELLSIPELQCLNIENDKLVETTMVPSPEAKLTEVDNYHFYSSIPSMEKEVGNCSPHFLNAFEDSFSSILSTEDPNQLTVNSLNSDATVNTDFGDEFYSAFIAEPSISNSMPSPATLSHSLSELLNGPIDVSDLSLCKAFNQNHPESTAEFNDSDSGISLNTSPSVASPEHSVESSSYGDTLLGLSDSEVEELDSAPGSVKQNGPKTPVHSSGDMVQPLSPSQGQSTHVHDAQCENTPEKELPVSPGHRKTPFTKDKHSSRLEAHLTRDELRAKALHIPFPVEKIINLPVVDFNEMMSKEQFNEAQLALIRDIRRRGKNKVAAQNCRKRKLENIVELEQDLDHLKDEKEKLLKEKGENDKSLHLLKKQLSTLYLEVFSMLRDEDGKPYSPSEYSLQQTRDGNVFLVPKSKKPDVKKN
# Sequence (Q14145 whole entry): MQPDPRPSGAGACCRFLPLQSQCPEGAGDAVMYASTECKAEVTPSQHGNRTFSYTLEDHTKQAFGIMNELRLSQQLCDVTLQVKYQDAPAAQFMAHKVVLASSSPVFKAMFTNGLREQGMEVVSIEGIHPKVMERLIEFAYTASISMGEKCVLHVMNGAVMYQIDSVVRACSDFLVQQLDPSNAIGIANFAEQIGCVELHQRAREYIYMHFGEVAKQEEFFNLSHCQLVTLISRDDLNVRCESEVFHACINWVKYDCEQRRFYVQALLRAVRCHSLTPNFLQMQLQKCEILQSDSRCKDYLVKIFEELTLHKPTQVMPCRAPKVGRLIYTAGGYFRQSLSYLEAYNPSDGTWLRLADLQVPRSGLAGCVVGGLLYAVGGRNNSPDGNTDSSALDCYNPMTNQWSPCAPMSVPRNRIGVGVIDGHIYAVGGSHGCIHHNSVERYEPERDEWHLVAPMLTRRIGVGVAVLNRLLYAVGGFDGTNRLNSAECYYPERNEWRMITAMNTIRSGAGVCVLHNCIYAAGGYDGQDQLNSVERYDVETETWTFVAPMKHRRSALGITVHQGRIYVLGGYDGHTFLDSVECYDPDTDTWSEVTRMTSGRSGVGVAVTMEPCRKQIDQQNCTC
# PROTOCOL SUMMARY: Binding affinity to FLAG/His-tagged Keap1 (unknown origin)/biotinylated full-length FLAG/His/Tev/Avi-tagged NRF2 (unknown origin) expressed in baculovirus infected Sf9 insect cells measured after 1 hr by TR-FRET assay
// pIC50 here means minus log10 of the molar concentration (mol/L)

Q: Form field: reported pIC50 of O=C(NCCCCN=C=S)OCc1ccncc1
Result: 4.40

Q: Form field: reported pIC50 of Cl.O=C(NCCCCNC(=S)SC1CCNCC1)Nc1ccncc1
Result: 4.30

Q: Form field: reported pIC50 of CN1CCC(SC(=S)NCCCCNC(=O)OCc2ccccn2)CC1
Result: 4.40

Q: Form field: reported pIC50 of O=C(NCCCCN=C=S)OCc1ccccc1
Result: 4.90

Q: Form field: reported pIC50 of O=C(NCCCCN=C=S)Nc1ccc2nccnc2c1
Result: 4.80

Q: Form field: reported pIC50 of CN1CCC(SC(=S)NCCCCNC(=O)Nc2ccc3c(c2)OCO3)CC1
Result: 4.70

Q: Form field: reported pIC50 of CN1CCC(SC(=S)NCCCCNC(=O)Nc2ccc3ncsc3c2)CC1
Result: 5.10

Q: Form field: reported pIC50 of Cl.O=C(NCCCCNC(=S)SC1CCNCC1)NC1CCCC1
Result: 4.30

Q: Form field: reported pIC50 of CN1CCC(SC(=S)NCCCCNC(=O)Nc2cccnc2)CC1
Result: 4.40

Q: Form field: reported pIC50 of O=C(CCc1ccccc1)NCCCCN=C=S
Result: 4.60

---

# PROTOCOL SUMMARY: Binding affinity to FLAG/His-tagged Keap1 (unknown origin)/biotinylated full-length FLAG/His/Tev/Avi-tagged Cul3 (unknown origin) expressed in baculovirus infected Sf9 insect cells measured after 1 hr by TR-FRET assay
# Parameters: species or system Homo sapiens
VALUE TYPE: pIC50
Reply: number alone, nothing else.

Q: Form field: reported pIC50 of CC(C)(C)OC(=O)N1CCC(SC(=O)NCCCCN=C=S)CC1
Result: 5.1

Q: Form field: reported pIC50 of CS(=O)(=O)N1CCC(CN=C=S)C1 (centres undefined)
Result: 4.1

Q: Form field: reported pIC50 of Cl.O=C(NCCCCNC(=S)SC1CCNCC1)Nc1ccncc1
Result: 4.7

Q: Form field: reported pIC50 of CNC(=O)CCCCN=C=S
Result: 4.1

Q: Form field: reported pIC50 of CN(C)c1c(N(C)CCCN=C=S)c(=O)c1=O
Result: 4.3

Q: Form field: reported pIC50 of Cc1ccccc1[S+]([O-])CCCCN=C=S (centres undefined)
Result: 4.6

Q: Form field: reported pIC50 of CN1CCC(SC(=S)NCCCCNC(=O)Nc2ccncc2)CC1
Result: 4.9

Q: Form field: reported pIC50 of CN1CCC(SC(=S)NCCCCNC(=O)CC2CCCC2)CC1
Result: 4.5

---

Provide the recorded pIC50 for the entries that follow.
# PROTOCOL SUMMARY: Binding affinity to FLAG/His-tagged Keap1 (unknown origin)/biotinylated full-length FLAG/His/Tev/Avi-tagged Cul3 (unknown origin) expressed in baculovirus infected Sf9 insect cells measured after 1 hr by TR-FRET assay
# Design: species or system Homo sapiens
Reply: number alone, nothing else.

Q: Form field: reported pIC50 of O=C(NCCCCN=C=S)Nc1ccc2scnc2c1
Result: 5.2

Q: Form field: reported pIC50 of CN1CCC(SC(=S)NCCCCNC(=O)CC2CCCCC2)CC1
Result: 5

Q: Form field: reported pIC50 of O=C(NCCCCN=C=S)C1CCCCC1
Result: 4.4

Q: Form field: reported pIC50 of O=S(=O)(CCCCN=C=S)c1ccccc1
Result: 4.6

Q: Form field: reported pIC50 of CNC(=O)NCCCCN=C=S
Result: 4.1

Q: Form field: reported pIC50 of [O-][S+](CCCCN=C=S)c1ccccn1 (stereo unspecified)
Result: 4.2
